Target: T1, IL-18RAP ECD-His (human)
T1 chain: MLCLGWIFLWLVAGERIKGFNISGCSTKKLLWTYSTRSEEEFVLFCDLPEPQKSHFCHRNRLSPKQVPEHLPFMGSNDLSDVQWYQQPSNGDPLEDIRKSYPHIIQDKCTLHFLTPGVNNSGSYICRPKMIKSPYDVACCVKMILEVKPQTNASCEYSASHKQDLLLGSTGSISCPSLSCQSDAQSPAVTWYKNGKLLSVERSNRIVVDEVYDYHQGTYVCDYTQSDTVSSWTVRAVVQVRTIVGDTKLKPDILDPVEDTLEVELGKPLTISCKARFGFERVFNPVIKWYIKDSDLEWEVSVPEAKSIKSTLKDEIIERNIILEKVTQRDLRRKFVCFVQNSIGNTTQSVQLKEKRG
Test: BLI
# log10 Kd values compiled below
property.name: log10 Kd (log10 of the value in nM)

{"columns": ["binder", "log10 Kd"],
 "data": [
  ["hzRap-F11-hFc (antibody, V domains shown) VH: EVQLVESGGGLVQPGGSLRLSCAASGFTYIPAYMGWFRQAPGKERERVASIKTDASTTYADSVEGRFTISQDNAKNTLYLQMNSLRPEDTAVYYCAAYQFGAFRVWGQGTLVTVSS", 0.69],
  ["Rap-F11-hFc (antibody, V domains shown) VH: QVQLQESGGGSVQPGGSLRLSCAASGFTYIPAYMGWFRQAPGKERERVASIKTDGSTTYADSVNGRFTIAQDTAKNTLYLQMDSLKPEDTAMYYCAAYQFGAFRVWGQGTQVTVSS", 0.66],
  ["Rap-A10-hFc (designed binder) QVQLQESGGGLVQAGGSLKLSCAASGYTYGPYCMGWFRQFPGKEREGVAAVGGDGRTWYGNSVKGRFTISQDNAKKTLYLQINALKPEDTAMYYCAADFDRTVCSDDIYDYTYRGQGTQVTVSS", -0.28],
  ["hzRap-A10-hFc (designed binder) EVQLLESGGGLVQPGGSLRLSCAASGYTYGPYCMGWFRQAPGKEREGVAAVGGDARTWYGNSVKGRFTISRDNSKNTLYLQMNSLRAEDTAVYYCAADFDRTVCSDDIYDYTYRGQGTLVTVSS", -0.01],
  ["Rap-C10-hFc (antibody, V domains shown) VH: QVQLQESGGGSVQPGGSLRLSCAASGFTYIPAYMGWFRQAPGKERERVASISSTDGSTTYADSVKGRFTVSQDTAKNTLYLQMNSLKPEDTAMYYCAAYQFGAFRVWGQGTQVTVSS", 0.24],
  ["hzRap-C10-hFc (antibody, V domains shown) VH: EVQLVESGGGLVQPGGSLRLSCAASGFTYIPAYMGWFRQAPGKERERVASISSTEGSTTYADSVKGRFTISQDNSKNTLYLQMNSLRPEDTAVYYCAAYQFGAFRVWGQGTLVTVSS", 0.80]
]}
